test: Solubility of the surfactant; settings: aqueous solution
Listing of recorded solubility in aqueous solutions (concentration dissolved to) by entry.
measure-name: solubility in aqueous solutions (concentration dissolved to) (%)

- CCCCCCCCCCC1COC(c2cccc(OCCCS(=O)(=O)[O-])c2)O1.[Na+] (centres unmarked): 1
- CCCCCC(OC(=O)NCCCS(=O)(=O)O)c1ccccc1 (centres unmarked): 0.5
- CCCCCCCCCCCC(C)(C)OC(=O)NCC(O)CS(=O)(=O)[O-].[Na+] (centres unmarked): 0.5
- CCCCCCCC(C)(C)OC(=O)Oc1ccc(NCCCS(=O)(=O)[O-])cc1.[Na+]: 0.5
